Molecular target: Neuropeptide Y receptor type 1 (Homo sapiens)
Assay: blockers of human neuropeptide Y Y1 receptor – cell-based, primary screen (AID 1040);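 note: 0% = DMSO wells given NPY plus isoproterenol and 100% = isoproterenol alone without NPY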
Details: HEK293-CNG Y1 cells, membrane potential fluorescence; at 3.6 µM; NPY at EC95, then isoproterenol
About 2,000 (1%) of roughly 200,000 compounds were called active.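 Rule for the calls: active = inhibition above the campaign mean inhibition of all tested compounds plus 3 SD (cut at about 20% in these data); inactive = the rest.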 The list comes from a sample in which actives are over-represented; it also holds close analogues and randomly drawn compounds.
One label from this list, please: 1.0 = active, 0.0 = inactive

Example cases with answers are listed next.
molecule="CCOC(=O)C1CCCN(C(=O)c2cccc(S(=O)(=O)N3CCOCC3)c2)C1 (stereo not given)" assigned_class=0.0
molecule="CCC(c1nnnn1C1CCCC1)N(Cc1cccs1)Cc1cc2cccc(C)c2[nH]c1=O (stereo not given)" assigned_class=1.0
molecule=CCCC(=O)Nc1nc2ccc(NC(=O)c3c(F)c(F)c(OC)c(F)c3F)cc2s1 assigned_class=1.0

Prompt: Hello, I am checking results. What call was entered for COc1ccc2nc(Nc3nc4ccc(NC(C)=O)cc4s3)sc2c1 ?
Completion: 0.0

Prompt: Write down the call the test reported for this molecule. Item: Cc1c(Cl)c([N+](=O)[O-])nn1CC(=O)NCC1CCCO1 (stereo not given)
Completion: 0.0

----------
Molecular target: Neuropeptide Y receptor type 1 (Homo sapiens) (UniProt P25929)
Sequence (P25929 whole entry, looked up): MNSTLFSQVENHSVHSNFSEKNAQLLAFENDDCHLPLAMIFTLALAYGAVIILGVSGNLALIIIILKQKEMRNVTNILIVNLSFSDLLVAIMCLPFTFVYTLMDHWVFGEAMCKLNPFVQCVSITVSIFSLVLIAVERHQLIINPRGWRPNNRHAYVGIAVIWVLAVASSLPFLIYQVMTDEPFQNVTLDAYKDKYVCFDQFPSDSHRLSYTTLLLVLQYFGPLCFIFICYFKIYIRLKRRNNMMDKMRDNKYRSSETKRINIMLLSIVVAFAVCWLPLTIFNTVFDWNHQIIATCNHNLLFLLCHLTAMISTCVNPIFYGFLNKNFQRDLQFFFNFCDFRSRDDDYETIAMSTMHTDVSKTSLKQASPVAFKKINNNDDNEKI
Test: blockers of human neuropeptide Y Y1 receptor – cell-based, primary screen (AID 1040)
Conditions: HEK293-CNG Y1 cells, membrane potential fluorescence; at 3.6 µM; hits give high values; NPY at EC95, then isoproterenol
The whole screen tested about 200,000 compounds, of which about 2,000 (1%) were called active. Only a selection was taken, and actives are over-represented in it overall.
Parameter: inhibition. Scope: all listed entries.
Express your answer in %, writing the number without its unit.

Please review the following examples before continuing.
molecule="COc1ccc(C2Nc3ccccc3C(=O)N2c2ccc(F)cc2)cc1Cn1nnc2ccccc21 (stereo not drawn)" target="Neuropeptide Y receptor type 1 (Homo sapiens) (UniProt P25929)" result_unit=% result_number=-0.97
molecule="CC1COc2ccccc2N1C(=O)c1cccnc1Cl (stereo not drawn)" target="Neuropeptide Y receptor type 1 (Homo sapiens) (UniProt P25929)" result_unit=% result_number=1.41
molecule=O=C(NCCNc1ccc([N+](=O)[O-])cc1)c1cccc2c(Br)cccc12 target="Neuropeptide Y receptor type 1 (Homo sapiens) (UniProt P25929)" result_unit=% result_number=10.2
molecule="Cc1ccc(OCC(=O)NC(C)c2ccccc2)c([N+](=O)[O-])n1 (stereo not drawn)" target="Neuropeptide Y receptor type 1 (Homo sapiens) (UniProt P25929)" result_unit=% result_number=19.9
molecule="CCCc1[nH]nc2c1C(C1CC=CCC1)C(C#N)=C(N)O2 (stereo not drawn)" target="Neuropeptide Y receptor type 1 (Homo sapiens) (UniProt P25929)" result_unit=% result_number=-5.43
molecule="CC(Nc1nc(N2CCOCC2)nc2ccccc12)c1ccccc1 (stereo not drawn)" target="Neuropeptide Y receptor type 1 (Homo sapiens) (UniProt P25929)" result_unit=% result_number=8.28
molecule="CC(Nc1nc(N2CCN(CCO)CC2)nc2ccccc12)c1ccccc1 (stereo not drawn)" target="Neuropeptide Y receptor type 1 (Homo sapiens) (UniProt P25929)" result_unit=% result_number=22.2
molecule="CC(Nc1nc(N2CCCC2)nc2ccccc12)c1ccccc1 (stereo not drawn)" target="Neuropeptide Y receptor type 1 (Homo sapiens) (UniProt P25929)" result_unit=% result_number=32.6
molecule=Cc1ccc(CSc2nc3[nH]ncc3c(=O)[nH]2)cc1 target="Neuropeptide Y receptor type 1 (Homo sapiens) (UniProt P25929)" result_unit=% result_number=7.17
molecule="CCn1ccnc1CN1CCCC(C(=O)c2ccc3c4c(cccc24)CC3)C1 (stereo not drawn)" target="Neuropeptide Y receptor type 1 (Homo sapiens) (UniProt P25929)" result_unit=% result_number=3.36

Prompt: Provide value of inhibition for this record tested with Neuropeptide Y receptor type 1 (Homo sapiens) (UniProt P25929): O=C(NC(c1ccccc1)c1ccccc1)N1CCN(CCO)CC1
Completion: 3.34

Prompt: Provide value of inhibition for this record tested with Neuropeptide Y receptor type 1 (Homo sapiens) (UniProt P25929): CCCc1[nH]nc2c1C(c1c(C)nn(-c3ccccc3)c1Cl)C(C#N)=C(N)O2 (stereo not drawn)
Completion: -1.69

----------
Target: Neuropeptide Y receptor type 1 (Homo sapiens) (UniProt P25929)
Test: blockers of human neuropeptide Y Y1 receptor – cell-based, primary screen (AID 1040);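 note: 0% = DMSO wells given NPY plus isoproterenol and 100% = isoproterenol alone without NPY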
Conditions: HEK293-CNG Y1 cells, membrane potential fluorescence; at 3.6 µM; hits give high values; NPY at EC95, then isoproterenol
Hit rate of the full screen: of about 200,000 compounds, about 2,000 (1%) were called active. The list comes from a sample in which actives are over-represented; it also holds close analogues and randomly drawn compounds.
Readout name: inhibition (%)
Kindly provide the numeric value in % only, without the unit symbol.

Examples with answers:
compound=CCCCN(CC)C(=O)c1ccc2c(c1)OCO2 readout_name=inhibition result_unit=% result_number=-2.36
compound=Cc1ccc(-c2cc(C(=O)N3CCc4ccccc4C3)no2)cc1 readout_name=inhibition result_unit=% result_number=28.6
compound=C=C(C)Cn1c(SCC(=O)NCc2ccco2)nc2sc3c(c2c1=O)CCC3 readout_name=inhibition result_unit=% result_number=8.57
compound=O=C(C(=O)N1CCc2ccccc2C1)N1CCc2ccccc2C1 readout_name=inhibition result_unit=% result_number=1.24

Prompt: Item under review: CCOC(=O)CSc1nc2c(sc(=S)n2CCc2ccccc2)c(=O)n1Cc1ccco1 . Reported inhibition?
Completion: 34.8

Prompt: Reported inhibition for OC(COCCC12CC3CC(CC(C3)C1)C2)CN1CCCCC1 (centres undefined) : what is it?
Completion: 26.9

Prompt: inhibition lookup needed for CCCn1nc(C(=O)N2CCCc3ccccc32)c2ccccc2c1=O , thanks.
Completion: 3.23

Prompt: Record request: inhibition value, item COc1ccccc1NC(=O)CSc1nc2sc(C)c(C)c2c(=O)n1Cc1ccco1
Completion: 9.58

Prompt: Suppose we examine the compound COc1cc(NC(=O)c2cc([N+](=O)[O-])ccc2Br)ccc1NC(=O)c1ccco1 ; what inhibition value has been reported?
Completion: 30.1

----------
Known inhibition of a selection of molecules
Molecular target: Neuropeptide Y receptor type 1 (Homo sapiens)
Test: blockers of human neuropeptide Y Y1 receptor – cell-based, primary screen (AID 1040);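 note: 0% = DMSO wells given NPY plus isoproterenol and 100% = isoproterenol alone without NPY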
Conditions: HEK293-CNG Y1 cells, membrane potential fluorescence; at 3.6 µM; hits give high values; NPY at EC95, then isoproterenol
Hit rate of the full screen: of about 200,000 compounds, about 2,000 (1%) were called active. This is one part of a sample in which actives are shown more often than they occur.
Provide the reading as a plain figure in %.

molecule=Cc1ccc(-n2nc3cc(C)c(NC(=O)c4cccnc4)cc3n2)cc1 target="Neuropeptide Y receptor type 1 (Homo sapiens)" result_unit=% result_number=-4.27
molecule=COc1ccc(Sc2nc(-c3ccccc3)ncc2OC)cc1 target="Neuropeptide Y receptor type 1 (Homo sapiens)" result_unit=% result_number=3.64
molecule=Cc1ccc(OCC(=O)Nc2cccc3c2CCCC3)cc1C target="Neuropeptide Y receptor type 1 (Homo sapiens)" result_unit=% result_number=21.6
molecule=O=C(O)CCCCOn1ccnc1 target="Neuropeptide Y receptor type 1 (Homo sapiens)" result_unit=% result_number=4.94

Prompt: # inhibition lookup, item CCCCc1c(O)nc2n(c1=O)CCS2
Completion: 20.6

Prompt: Which inhibition reading was recorded for the molecule c1ccc(-c2nnc(N3CCOCC3)c3ccccc23)cc1 ?
Completion: -0.9

----------
Biological target: Neuropeptide Y receptor type 1 (Homo sapiens) (UniProt P25929)
Experiment: blockers of human neuropeptide Y Y1 receptor – cell-based, primary screen (AID 1040);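 note: 0% = DMSO wells given NPY plus isoproterenol and 100% = isoproterenol alone without NPY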
Conditions: HEK293-CNG Y1 cells, membrane potential fluorescence; at 3.6 µM; NPY at EC95, then isoproterenol
The whole screen tested about 200,000 compounds, of which about 2,000 (1%) were called active.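 The calls were made as follows: active = inhibition above the campaign mean inhibition of all tested compounds plus 3 SD (cut at about 20% in these data); inactive = the rest.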 Only a selection was taken, and actives are over-represented in it overall.
Valid outcomes are listed here; reply with one: True (active), False (inactive)

Before answering, review these 4 worked examples.
molecule=Cc1ccc(OCC(=O)Nn2cnc3ccccc32)cc1 assigned_class=False
molecule=O=C(/C=C\c1cn(-c2ccccc2)nc1-c1cccs1)N1CCOCC1 assigned_class=False
molecule=Cc1ccccc1NC(=O)NC1(C(=O)N2CCCC2)CCCCC1 assigned_class=False
molecule=CCNC(=O)COC(=O)/C=C/c1c(C)nn(Cc2cccc(OC)c2)c1Cl assigned_class=False

Prompt: Which outcome was assigned to COc1ccccc1Nc1ncnc2c1oc1ccccc12 in this test?
Completion: True

Prompt: Look up the recorded call for CCc1nc(Nc2ccc3nccnc3c2)c2oc3ccccc3c2n1 in this test.
Completion: False

Prompt: Recorded test outcome, item COC(=O)c1ccc(COC(=O)c2cnccn2)cc1
Completion: False

Prompt: Field: outcome | Entry: COc1cc(NC(=S)N2CCCC(C)C2)cc(OC)c1OC (stereo not drawn)
Completion: False

Prompt: Look up the recorded call for O=C(OCc1cc(Cl)ccc1OC(F)F)c1cccnc1 in this test.
Completion: False

Prompt: Which outcome was assigned to Cc1cc(C)c2c(-n3cccc3)c(NC(=O)OCc3ccccc3)sc2n1 in this test?
Completion: True

Prompt: Test call, this molecule: O=C(O)CSc1nccc2ccccc12
Completion: True

Prompt: Dear all, I need the recorded test outcome for COC(=O)CSc1nc(C2CC2)nc2ccccc12 , thank you.
Completion: False

Prompt: // outcome(item) with item = CN(C)S(=O)(=O)c1cc(NC(=O)CN2C(=O)NC3(CCCc4ccccc43)C2=O)ccc1Cl (stereo not drawn)
Completion: False

Prompt: Outcome? N#Cc1cnn2cc(CCN3CCOCC3)c(-c3ccc(F)cc3)nc12
Completion: False

Prompt: How was CCCOc1ccccc1C1CC(=O)Nc2cc3c(cc21)OCO3 (stereo not drawn) classified in this test?
Completion: False

Prompt: How did this test come out for COC(=O)Nc1sc2nc(C)cc(C)c2c1-n1cccc1 ?
Completion: False
